FYI, the data here is from paper PMC8560925.

Study System: TcdB-GTD (Clostridioides difficile, UniProt P18177)
Construct: C-terminal His-6 tagged TcdB-GTD (amino acids 1-546); His6 (C); made in house; host or cells: Escherichia coli One Shot BL21 Star (DE3)
Sequence (P18177 1-546 limits assumed): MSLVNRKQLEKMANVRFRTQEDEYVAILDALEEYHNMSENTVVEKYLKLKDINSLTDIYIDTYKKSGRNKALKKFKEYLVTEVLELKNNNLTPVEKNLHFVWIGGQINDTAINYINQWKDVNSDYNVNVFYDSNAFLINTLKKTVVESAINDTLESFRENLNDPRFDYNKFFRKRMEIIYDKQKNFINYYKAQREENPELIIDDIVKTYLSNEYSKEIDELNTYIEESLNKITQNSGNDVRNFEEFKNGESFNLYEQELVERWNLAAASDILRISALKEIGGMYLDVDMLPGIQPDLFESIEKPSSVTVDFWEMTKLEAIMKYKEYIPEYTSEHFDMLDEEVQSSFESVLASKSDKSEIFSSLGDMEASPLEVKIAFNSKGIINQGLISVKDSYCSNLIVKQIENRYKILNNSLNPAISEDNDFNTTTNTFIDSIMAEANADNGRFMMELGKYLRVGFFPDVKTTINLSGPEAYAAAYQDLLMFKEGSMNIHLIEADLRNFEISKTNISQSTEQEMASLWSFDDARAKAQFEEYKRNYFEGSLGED
Procedure Summary: biochemical
Set-up: species or system Clostridium difficile
Condition Info: Ki TcdB-GTD GH activity
Property Label: Ki

INSERT INTO assay_data (compound, study_system, property_label, reported_result) VALUES
  ('O[C@H]1[C@H]2[C@H](O)CCCN2C[C@H]1O [Swainsonine]', 'TcdB-GTD (Clostridioides difficile, UniProt P18177)', 'Ki', '> 10 mM');
